Provide the reported TGI of each item.
# Test system: NCI/ADR-RES ovarian
# Test Summary: NCI tumour cell line growth inhibition, 48 h
*1 amine or outer side, *2 acyl side, *3 side chain or, on linkers, in order; H or OH if unused. Where a SMILES comes first, the peptide text is derived from it. CO = O=C([*:1])[*:2]

Here's what some known entries look like.
Molecule | TGI
Nc1c(C(=O)Nc2cccc3ccccc23)sc2nc3c(cc12)CCCCC3 | > 50 µM
O=C1CN2CCC1C/C2=C\c1ccnc2c(Cl)cccc12 (stereo not drawn) | > 100 µM
Cc1cc(Nc2ncc(Cl)c(Nc3ccccc3S(=O)(=O)C(C)C)n2)c(OC(C)C)cc1C1CCNCC1 | 3.4 µM
O=C(c1cccs1)c1c(C(F)(F)F)n([O-])c2cc(C(F)(F)F)ccc2[n+]1=O | 0.585 µM
COC(=O)c1cccc(C)c1C1CN=NC12Cc1c(ccc(C)c1C)C2=O (stereo not drawn) | > 100 µM
Cc1ccc(-c2cnc(NC3OC(COC(=O)c4ccccc4)C(OC(=O)c4ccccc4)C(OC(=O)c4ccccc4)C3OC(=O)c3ccccc3)s2)cc1 (stereo not drawn) | > 100 µM

List reported TGI for each of these molecules:
1. CC(C)C(NC(=O)C(CCCN=C(N)N)NC(=O)NC(Cc1ccccc1)C(=O)O)C(=O)NC(C=O)CCCN=C(N)N (stereo not drawn) ({Phe-CO}-Arg-Val-Arg-aldehyde; configuration not given here)
2. COc1ccc2c(c1)C(=O)c1c-2c(N2CCN(C(=O)CN(C)C)CC2)nc2ccccc12

Reply |
1: > 5 µM; 2: 57.1 µM
